src = paper PMC11847542

# Test system: KRAS RNA G4-c (KRAS RG4) (RNA, G4) AAGGUGGCGGCGGCUCG
# test.details: thiazole orange displacement, fluorescence
# experimental.setup: 100 mM K+; 10 mM Tris-HCl pH 7.4; 0.25 μM RNA; tracer 0.5 μM thiazole orange displaced
Examples of molecules with documented EC50 follow.
endpoint.label: EC50 (µM)

molecule | unit.abbrev | recorded.value
CC1CCN(c2ccc3c(c2)c2cc([N+]4(C)CCC(C)CC4)ccc2c2nc4cc(F)c(F)cc4nc32)CC1 (stereo not shown) | µM | 3.3
COc1cc2nc3c4ccc(N5CCC(C)CC5)cc4c4cc([N+]5(C)CCC(C)CC5)ccc4c3nc2cc1OC (stereo not shown) | µM | 1.4
CC1CCN(c2ccc3c(c2)c2cc([N+]4(C)CCC(C)CC4)ccc2c2nc4cc(Cl)c(Cl)cc4nc32)CC1 (stereo not shown) | µM | 7.0
CC1CCN(c2ccc3c(c2)c2cc(N4CCC(C)CC4)ccc2c2nc4cc5ccccc5cc4nc32)CC1 | µM | 45.0
Cc1cc2nc3c4ccc(N5CCC(C)CC5)cc4c4cc([N+]5(C)CCC(C)CC5)ccc4c3nc2cc1C (stereo not shown) | µM | 1.5
CC1CCN(c2ccc3c(c2)c2cc([N+]4(C)CCC(C)CC4)ccc2c2nc4ccccc4nc32)CC1 (stereo not shown) | µM | 1.8
CC1CCN(c2ccc3c(c2)c2cc([N+]4(C)CCC(C)CC4)ccc2c2nc4cc5ccccc5cc4nc32)CC1 (stereo not shown) | µM | 1.5

---

# Test system: KRAS RNA G4-c (KRAS RG4) (RNA, G4) AAGGUGGCGGCGGCUCG
# test.details: CD melting
# experimental.setup: 1 mM K+; 10 mM Tris-HCl pH 7.4; 2 μM RNA

compound | binding
CC1CCN(c2ccc3c(c2)c2cc(N4CCC(C)CC4)ccc2c2nc4cc5ccccc5cc4nc32)CC1 | no
CC1CCN(c2ccc3c(c2)c2cc([N+]4(C)CCC(C)CC4)ccc2c2nc4cc(Cl)c(Cl)cc4nc32)CC1 (stereo not drawn) | weak
COc1cc2nc3c4ccc(N5CCC(C)CC5)cc4c4cc([N+]5(C)CCC(C)CC5)ccc4c3nc2cc1OC (stereo not drawn) | yes
Cc1cc2nc3c4ccc(N5CCC(C)CC5)cc4c4cc([N+]5(C)CCC(C)CC5)ccc4c3nc2cc1C (stereo not drawn) | yes
CC1CCN(c2ccc3c(c2)c2cc([N+]4(C)CCC(C)CC4)ccc2c2nc4cc(F)c(F)cc4nc32)CC1 (stereo not drawn) | weak
CC1CCN(c2ccc3c(c2)c2cc([N+]4(C)CCC(C)CC4)ccc2c2nc4ccccc4nc32)CC1 (stereo not drawn) | weak
